B1: Pistol ribozyme (parent)
chain: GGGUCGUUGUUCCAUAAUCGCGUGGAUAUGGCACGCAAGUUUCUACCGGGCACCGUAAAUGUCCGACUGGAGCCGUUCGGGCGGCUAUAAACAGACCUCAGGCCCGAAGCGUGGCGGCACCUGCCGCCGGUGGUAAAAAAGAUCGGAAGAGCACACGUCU

- Variants of: B1
- measurement description: aptazyme ON/OFF ratio, guanine; higher = stronger switching; co-transcriptional cleavage with and without guanine
aptazyme ON/OFF ratio values by entry

Supply aptazyme ON/OFF ratio value. Item: U7C U8A G9U U11C C12A
1.13

Give recorded aptazyme ON/OFF ratio. U7G U8G G9C U11A C12A C13G
1.05

Identify measured aptazyme ON/OFF ratio associated with U7A U8G G9A U11G C12A C13A
1.16

# return recorded aptazyme ON/OFF ratio for input U8A G9A U10G U11A C12U C13A
1.12

Dear colleague, please send me the reported aptazyme ON/OFF ratio for U7C U10A C12U C13U when you can.
1.35

# return recorded aptazyme ON/OFF ratio for entry U7A U8A G9U U11A C12G C13G
1.16

Give the measured aptazyme ON/OFF ratio for U7G G9C U11C C12A C13G
1.28

Note down aptazyme ON/OFF ratio recorded for U7C G9U U11C C12G C13A
1.05
